Origin of measurements: paper PMC7156458

Target or test system: Aβ42 (Homo sapiens)
Sequence (P05067 672-713): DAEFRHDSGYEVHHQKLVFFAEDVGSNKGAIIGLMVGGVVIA
Experimental details: Th-T (thioflavin-T) assay of Aβ42 aggregation
Assay type: biochemical
Particulars: head suffix _10 (concentration 10); reading M66
The label YES is reserved for Th-T fluorescence of Aβ42 (sheet Fig. 7a), mean of three wells strictly under 2; NO covers values equal to or above it.

Molecule	Class label
C=C1CC[C@@H]2[C@](C)(CC[C@H]3O[C@H](C=C(C)C)C[C@@]23C)[C@@H]1Cc1c(OC)oc(CO)c(C)c1=O [Compound 20]	NO
C=C1CCC2C(C)(CCC=C(C)C)C(O)CCC2(C)C1Cc1c(OC)oc(CO)c(C(=O)OC)c1=O (centres unmarked) [Compound 13]	YES
C=C1CCC2C(C)(CCC=C(C)C)C(O)CCC2(C)C1Cc1c(OC)oc(C)c(C(=O)OC)c1=O (centres unmarked) [Compound 14]	NO
C=C1CCC2C(C)(CCC=C(C)C)C(O)CCC2(C)C1Cc1c(OC)oc(CO)c(C)c1=O (centres unmarked) [Compound 12]	NO
C=C1CC[C@@H]2[C@](C)(CC[C@H]3O[C@H](C=C(C)C)C[C@@]23C)[C@@H]1Cc1c(OC)oc(CO)c(C(=O)OC)c1=O [Compound 21]	YES
